Listed here are compounds together with their documented pEC50.
# Tested on: Human immunodeficiency virus 1
# TEST METHOD NOTES: Reactivation of latent HIV1 NL4-3-Luc expression in human naive CD4+ T cells treated 7 days post-infection measured after 48 hrs by luminescence plate reader analysis
# Type: functional, organism-based, T-cell
# PROTOCOL CONDITIONS: Human immunodeficiency virus 1, NL4-3, T-cell; read-out: EC50
Lab note — pEC50 values are minus log10 of concentrations in M.

INSERT INTO results (compound, measured_on, reported_endpoint, observed) VALUES
  ('C[C@@H]1C[C@@H](O)[C@@H](O)/C=C\C=C\C(=O)Cc2c(Cl)c(O)cc(O)c2C(=O)O1', 'Human immunodeficiency virus 1', 'pEC50', 4.60),
  ('C[C@H]1C[C@H]2O[C@@H]2C[C@H](O)/C=C/C(=O)Cc2c(Cl)c(O)cc(O)c2C(=O)O1 [POCHONIN B]', 'Human immunodeficiency virus 1', 'pEC50', 4.40),
  ('O=C(NCCSSCCNC(=O)/C(Cc1ccc(O)c(Br)c1)=N/O)/C(Cc1ccc(O)c(Br)c1)=N/O [PSAMMAPLIN A]', 'Human immunodeficiency virus 1', 'pEC50', 6.70),
  ('C[C@@H]1C[C@H]2O[C@@H]2/C=C\C=C\C(=O)Cc2c(Cl)c(O)cc(O)c2C(=O)O1 [RADICICOL]', 'Human immunodeficiency virus 1', 'pEC50', 5.04),
  ('CCC(=O)CCCCC[C@@H]1NC(=O)[C@H]2CCCCN2C(=O)[C@H]([C@@H](C)CC)NC(=O)[C@H](Cc2cn(OC)c3ccccc23)NC1=O [APICIDIN]', 'Human immunodeficiency virus 1', 'pEC50', 6.52);

What the record says about C[C@H]1C[C@H](O)C(Cl)/C=C\C=C\C(=O)Cc2c(Cl)c(O)cc(O)c2C(=O)O1 (stereo partly specified) [POCHONIN C] : pEC50 is 5.20
